Test system: Mycobacterium tuberculosis variant bovis BCG
Test: Antimycobacterial activity against Mycobacterium bovis BCG Pasteur ATCC 35734 assessed as inhibition of mycobacterial growth incubated for 24 hrs by MABA method
Type: functional
Settings: Pasteur ATCC 35734, 24 h
Mark each entry satisfied if its MIC sits below 3 µg/mL, and not satisfied for all others.

Task: Criterion: MIC strictly below 3 µg/mL. Is it met by Cc1cc(/C=N\OCc2ccccc2)c(C)n1-c1ccc(Cl)cc1 ?
Result: not satisfied

Task: Find out if reported MIC for Cc1cc(CN2CCN(C34CC5CC(CC(C5)C3)C4)CC2)c(C)n1-c1ccc(Cl)cc1 is less than 3 µg/mL
Result: not satisfied

Task: Dear colleague, could you confirm whether MIC of Cc1cc(CN2CCN(c3ccccc3)CC2)c(C)n1-c1ccc(Cl)cc1 falls below 3 µg/mL? Thanks.
Result: not satisfied

Task: Quick check: MIC of Cc1c(CN2CCN(C)CC2)cc(-c2ccc(Cl)cc2)n1-c1ccc(Cl)cc1 under 3 µg/mL?
Result: satisfied

Task: hey, is MIC for Cc1c(CN2CCN(c3ccccc3)CC2)cc(-c2ccc(Cl)cc2)n1-c1ccc(Cl)cc1 lower than 3 µg/mL or not?
Result: satisfied

Task: Does this compound meet the criterion MIC < 3 µg/mL? Cc1cc(CNCc2ccccc2)c(C)n1-c1ccc(F)cc1
Result: not satisfied

Task: # TODO verify MIC < 3 µg/mL strictly for this compound: Cc1cc(CN2CCN(C3C4CC5CC(C4)CC3C5)CC2)c(C)n1-c1ccc(Cl)cc1 (stereo unspecified)
Result: not satisfied

Task: Does the reported MIC of the following compound sit strictly below 3 µg/mL? Cc1cc(CNC2CCCCC2)c(C)n1-c1ccc(Cl)cc1
Result: satisfied

Task: Find out if reported MIC for Cc1c(CN2CCN(c3ccccc3)CC2)c(CN2CCN(c3ccccc3)CC2)c(C)n1-c1ccc(Cl)cc1 is less than 3 µg/mL
Result: not satisfied

Task: Just wondering, is MIC of Cc1cc(CNCc2ccccc2)c(C)n1-c1ccc(Cl)cc1 below 3 µg/mL?
Result: satisfied

Task: Consider Cc1cc(CNC2C3CC4CC(C3)CC2C4)c(C)n1-c1ccc(Cl)cc1 (stereo unspecified) . Does its MIC lie strictly below 3 µg/mL?
Result: satisfied

Task: Say whether its MIC is strictly beneath 3 µg/mL. Entry: CC(C)=CCC/C(C)=C/CNCCNC1C2CC3CC(C2)CC1C3 (stereo unspecified) [SQ109]
Result: satisfied

Task: MIC under 3 µg/mL? Item: Cc1cc(CNCCc2ccccc2)c(C)n1-c1ccc(Cl)cc1
Result: not satisfied

Task: Determine whether this compound shows MIC lower than 3 µg/mL (ties excluded): Cc1cc(CN2CCN(C3CCCCC3)CC2)c(C)n1-c1ccc(Cl)cc1
Result: not satisfied

Task: hey, is MIC for Cc1c(CN2CCN(C3C4CC5CC(C4)CC3C5)CC2)cc(-c2ccc(Cl)cc2)n1-c1ccc(Cl)cc1 (stereo unspecified) lower than 3 µg/mL or not?
Result: not satisfied

Task: Please check: MIC for Cc1cc(CN2CCN(C3C4CC5CC(C4)CC3C5)CC2)c(C)n1-c1ccccc1F (stereo unspecified) , strictly under 3 µg/mL or not?
Result: satisfied

Task: Determine if Cc1cc(CN2CCN(C3C[C@@H]4CC[C@H]3C4)CC2)c(C)n1-c1ccc(Cl)cc1 (mixture of isomers) shows MIC strictly lower than 3 µg/mL.
Result: not satisfied

Task: I wonder whether Cc1cc(CNCc2ccc(F)cc2)c(C)n1-c1ccc(Cl)cc1 has MIC below 3 µg/mL. Can you tell?
Result: satisfied

Task: API: query returns whether the compound falls strictly under 3 µg/mL in MIC. Query: Cc1ccc(CNCc2cc(C)n(-c3ccc(Cl)cc3)c2C)cc1
Result: not satisfied

Task: Is 3 µg/mL strictly greater than the compound's reported MIC? compound: Cc1cc(CNOCc2ccccc2)c(C)n1-c1ccc(Cl)cc1
Result: not satisfied

Task: Does the reported MIC of the following compound sit strictly below 3 µg/mL? Cc1cc(CN2CCN(C3C4CC5CC(C4)CC3C5)CC2)c(C)n1-c1ccc(C(C)C)cc1 (stereo unspecified)
Result: not satisfied

###

Tested on: Mycobacterium tuberculosis
Test: Antimycobacterial activity against drug-resistant Mycobacterium tuberculosis isolate MDR1 assessed as inhibition of mycobacterial growth incubated for 9 days
Format: functional
Details: isolate MDR1, 216 h
// reported MIC per item
API: value field is a number in µg/mL; no unit string.

Cc1cc(CN2CCN(C34CC5CC(CC(C5)C3)C4)CC2)c(C)n1-c1ccc(Cl)cc1
125
Cc1cc(CN2CCN(C3C4CC5CC(C4)CC3C5)CC2)c(C)n1-c1ccc(Cl)cc1 (stereo not drawn)
7.8

// moving on: another record for MIC
Task: Retrieve MIC measured for Cc1cc(CNCCc2ccccc2)c(C)n1-c1ccc(Cl)cc1 and print it.
Result: 1.9

###

# MIC listing for each entry below
Tested on: Mycobacterium tuberculosis variant bovis BCG
Experiment: Antimycobacterial activity against Mycobacterium bovis BCG Pasteur ATCC 35734 assessed as inhibition of mycobacterial growth incubated for 24 hrs by MABA method
Type: functional
Details: Pasteur ATCC 35734, 24 h
Give a bare numeral; the unit µg/mL is implied.

# annotated cases, reported MIC shown
Cc1c(CNC2CCCCC2)cc(-c2ccc(Cl)cc2)n1-c1ccc(Cl)cc1
4
Cc1c(CN2CCN(C3CC4CCC3C4)CC2)cc(-c2ccc(Cl)cc2)n1-c1ccc(Cl)cc1 (mixture of isomers)
64
Cc1cccc(-n2c(C)cc(CN3CCN(C4C5CC6CC(C5)CC4C6)CC3)c2C)c1 (configuration not stated)
62
Cc1c(CNCc2ccccc2)cc(-c2ccc(Cl)cc2)n1-c1ccc(Cl)cc1
8
Cc1c(CN2CCN(C34CC5CC(CC(C5)C3)C4)CC2)cc(-c2ccc(Cl)cc2)n1-c1ccc(Cl)cc1
2

// next entry
Task: Return value of MIC for input Cc1cc(CNCc2ccc(Cl)cc2)c(C)n1-c1ccc(Cl)cc1 , no commentary.
Result: 8

###

System: Mycobacterium tuberculosis
Assay: Antimycobacterial activity against drug-resistant Mycobacterium tuberculosis isolate MDR1 assessed as inhibition of mycobacterial growth incubated for 9 days
Type: functional
Details: isolate MDR1, 216 h
observation type: MIC (µg/mL)
Number only, in µg/mL; omit the unit.

Examples with their reported MIC follow.
Cc1c(CN2CCN(C34CC5CC(CC(C5)C3)C4)CC2)cc(-c2ccc(Cl)cc2)n1-c1ccc(Cl)cc1
16
Cc1c(CN2CCN(C3C4CC5CC(C4)CC3C5)CC2)cc(-c2ccc(Cl)cc2)n1-c1ccc(Cl)cc1 (stereo unspecified)
125
Cc1cc(CN2CCN(C3C[C@@H]4CC[C@H]3C4)CC2)c(C)n1-c1ccc(Cl)cc1 (mixture of isomers)
3.9

// below: MIC requested for another compound
Task: # assay system Mycobacterium tuberculosis: give MIC of Cc1c(CN2CCN(c3ccccc3)CC2)c(CN2CCN(c3ccccc3)CC2)c(C)n1-c1ccc(Cl)cc1
Result: 62

###

System: Mycobacterium tuberculosis
Experiment: Antimycobacterial activity against drug-resistant Mycobacterium tuberculosis isolate MDR1 assessed as inhibition of mycobacterial growth incubated for 9 days
Format: functional
Conditions: isolate MDR1, 216 h
observation type: log10(MIC) (log10 of the value in µg/mL)
The base-10 logarithm of MIC, taken with MIC in µg/mL, is what appears here.

Reference set (10 entries):
Cc1ccc(CNCc2cc(C)n(-c3ccc(Cl)cc3)c2C)cc1
0.59
NNC(=O)c1ccncc1
1.00
Cc1cc(CNC2C3CC4CC(C3)CC2C4)c(C)n1-c1ccc(Cl)cc1 (configuration not stated)
0.59
Cc1cc(CN2CCN(C3C4CC5CC(C4)CC3C5)CC2)c(C)n1-c1ccc(C(C)C)cc1 (configuration not stated)
1.79
Cc1cc(CN2CCN(c3ccccc3)CC2)c(C)n1-c1ccc(Cl)cc1
1.49
Cc1cc(CNOCc2ccccc2)c(C)n1-c1ccc(Cl)cc1
2.10
Cc1cc(CNC2CCCCC2)c(C)n1-c1ccc(Cl)cc1
-0.30
Cc1cc(CNCc2ccccc2)c(C)n1-c1ccc(Cl)cc1
0.00
Cc1c(CN2CCN(C)CC2)cc(-c2ccc(Cl)cc2)n1-c1ccc(Cl)cc1
0.59
Cc1cc(CN2CCN(C3CCCCC3)CC2)c(C)n1-c1ccc(Cl)cc1
0.89

Task: // fetch log10(MIC) for Cc1cc(CN2CCN(C3C4CC5CC(C4)CC3C5)CC2)c(C)n1-c1ccccc1F (configuration not stated) ; system: Mycobacterium tuberculosis
Result: 0.89

Task: Enter recorded log10(MIC) with Mycobacterium tuberculosis for Cc1cc(CNCc2ccc(Cl)cc2)c(C)n1-c1ccc(Cl)cc1 here.
Result: 1.49

Task: With Mycobacterium tuberculosis as the test system, provide measured log10(MIC) for this molecule: Cc1cc(CNOCc2ccccc2)c(C)n1-c1ccc(F)cc1
Result: 1.79

Task: # return log10(MIC) of Cc1cc(CNCc2ccccc2)c(C)n1-c1ccc(F)cc1 (system: Mycobacterium tuberculosis)
Result: 0.89

Task: Provide Mycobacterium tuberculosis log10(MIC) reading for Cc1c(CN2CCN(c3ccccc3)CC2)cc(-c2ccc(Cl)cc2)n1-c1ccc(Cl)cc1 .
Result: 0.59

Task: Specify the recorded log10(MIC) for Cc1cccc(-n2c(C)cc(CN3CCN(C4C5CC6CC(C5)CC4C6)CC3)c2C)c1 (configuration not stated) , system: Mycobacterium tuberculosis.
Result: 1.49
